- System: RAW 264.7 cells
- procedureDetails: Cell viability (CellTiter 96 AQueous One) of LPS-challenged RAW 264.7 cells
- Type: cell-based, mouse
- Design: key: NS=not significant; a “+” sign=anti-inflammatory or increased cell numbers; a “−” sign=cell toxicity or pro-inflammatory
- conditionParameters: 30 μM
- Experimental: The CellTiter 96® AQueous One Solution Cell Proliferation Assay (Promega, Madison, Wis.) is routinely used as an assay of cell proliferation, and was used according to the manufacturer's recommendations. Changes in cellular health status are determined by use of indirect measures related to the formation of a colored tetrazolium dye product that can be measured spectrophotometrically at 490 nm λ. […] Optical densities (expressed as O.D.s) were measured after various incubations. […]
outcomeMeasure: Viability

CC1(C)[C@@H]2CC[C@]1(C)[C@@H](N1C(=O)C3C4C=CC(C4)C3C1=O)C2 (some centres unmarked) [Compound 117] : −
CC(N1Cc2c(cccc2[N+](=O)[O-])C1=S)C12CC3CC(CC(C3)C1)C2 (centres unmarked) [Compound 89] : −
CC(N1Cc2c(cccc2[N+](=O)[O-])C1=O)C12CC3CC(CC(C3)C1)C2 (centres unmarked) [Compound 80] : NS
CC1(C)[C@@H]2CC[C@]1(C)[C@@H](N1C(=O)C3CC=CCC3C1=O)C2 (some centres unmarked) [Compound 115] : −
CC1(C)[C@@H]2CC[C@H](CN3Cc4c(cccc4[N+](=O)[O-])C3=O)[C@H]1C2 [Compound 103] : SIG
CC1(C)[C@@H]2CC[C@H](CN3C(=O)C4CC=CCC4C3=O)[C@H]1C2 (some centres unmarked) [Compound 112] : −
O=C1c2ccccc2CN1c1ccc(C(F)(F)F)cc1 [Compound 68] : NS
Nc1cccc2c1CN(CC13CC4CC(CC(C4)C1)C3)C2=O [Compound 79] : −
